test-method-notes: Pharmacokinetics in female BALB/c nude mice bearing A375 xenografts, 1 day dosing (PK and PD study): plasma, tumor and brain concentrations, AUC
Type: in vivo
test-conditions: mouse, tumor, po, 1.5 mg/kg, Compound 141; 1.5 mg/kg p.o. BID × 1 day; post 2nd dose; 0.25 h; read-out: Mean Concentration in Tumor ± SEM
measurement-type: concentration at 0.25 h

Q: Give recorded concentration at 0.25 h. CCN(C)S(=O)(=O)Nc1ccc(F)c(Oc2ccc3ncn(C4CC5(CCN(C6CC7(C6)CN(c6cc8c(cc6F)c(N6CCC(=O)NC6=O)nn8C)C7)CC5)C4)c(=O)c3c2)c1C#N (stereo not shown)
A: 58.9 ng/g

Value source: patent US20260297060A1
